- assay: The drug is tested on Z-004 corresponding to metagenome with ENA study accession number: PRJEB37062 and ENA sample accession number: ERS12561804 for biotransformation under anaerobic condition. The drug concentrations were measured over 9 timepoints collected between 0 and 24 hours of incubation by liquid-chromatography-coupled mass spectrometry (LC–MS); further: call rule not given here
- condition-context: 2 µM
measured-endpoint: Bacterial Biotransformation

Below, each entry is followed by its recorded Bacterial Biotransformation result.
{"compound": "CC(C)NCC(O)COc1ccc(COCCOC(C)C)cc1.CC(C)NCC(O)COc1ccc(COCCOC(C)C)cc1.O=C(O)/C=C/C(=O)O (stereo unspecified) [BISOPROLOL FUMARATE]", "measured-endpoint": "Bacterial Biotransformation", "reported-result": "Compound NOT metabolized"}
{"compound": "CCCCc1nc(Cl)c(CO)n1Cc1ccc(-c2ccccc2-c2nn[nH]n2)cc1", "measured-endpoint": "Bacterial Biotransformation", "reported-result": "Compound NOT metabolized"}
{"compound": "COc1cc2nc(N(C)CCCNC(=O)C3CCCO3)nc(N)c2cc1OC (stereo unspecified)", "measured-endpoint": "Bacterial Biotransformation", "reported-result": "Compound NOT metabolized"}
{"compound": "CCC(COC(=O)c1cc(OC)c(OC)c(OC)c1)(c1ccccc1)N(C)C.O=C(O)/C=C\\C(=O)O (stereo unspecified)", "measured-endpoint": "Bacterial Biotransformation", "reported-result": "Compound NOT metabolized"}
{"compound": "C[C@@H]1C[C@H]2[C@@H]3CCC4=CC(=O)C=C[C@]4(C)[C@@]3(F)[C@@H](O)C[C@]2(C)[C@@]1(O)C(=O)CO", "measured-endpoint": "Bacterial Biotransformation", "reported-result": "Compound metabolized"}

Qu. Determine from records and report Bacterial Biotransformation for O=c1[nH]c2ccccc2n1C1CCN(CCCC(c2ccc(F)cc2)c2ccc(F)cc2)CC1 [PIMOZIDE]
Ans. Compound NOT metabolized

Qu. Determine from records and report Bacterial Biotransformation for CN1C(=O)CC(C)(c2ccccc2)C1=O (stereo unspecified) [METHSUXIMIDE]
Ans. Compound NOT metabolized

Qu. Determine from records and report Bacterial Biotransformation for O=C(CCCN1CCC(O)(c2ccc(Cl)cc2)CC1)c1ccc(F)cc1
Ans. Compound NOT metabolized

Qu. Determine from records and report Bacterial Biotransformation for O=P(O)(O)O.c1ccc(CN(CC2=NCCN2)c2ccccc2)cc1 [ANTAZOLINE PHOSPHATE]
Ans. Compound metabolized

Qu. Determine from records and report Bacterial Biotransformation for Cc1ccc(-c2nc3ccc(C)cn3c2CC(=O)N(C)C)cc1
Ans. Compound NOT metabolized

Qu. Determine from records and report Bacterial Biotransformation for CS(=O)(=O)O.OC(CCN1CCCCC1)(c1ccccc1)c1ccccc1 [PRIDINOL METHANESULFONATE]
Ans. Compound NOT metabolized

---

- assay: The drug is tested on Z-022 corresponding to mouse gut metagenome with ENA study accession number: PRJEB37062 and ENA sample accession number: ERS12561821 for biotransformation under anaerobic condition. The drug concentrations were measured over 9 timepoints collected between 0 and 24 hours of incubation by liquid-chromatography-coupled mass spectrometry (LC–MS)
- condition-context: 2 µM

{"smiles-data": "Cc1cc2c(cc1S(N)(=O)=O)S(=O)(=O)CCC2", "Bacterial Biotransformation": "Compound NOT metabolized"}
{"smiles-data": "Clc1ccc(Cn2c(CN3CCCC3)nc3ccccc32)cc1", "Bacterial Biotransformation": "Compound NOT metabolized"}
{"smiles-data": "CCOc1ccc(NC(C)=O)cc1", "Bacterial Biotransformation": "Compound NOT metabolized"}
